Test system: SUDIPGXIII (diffuse intrinsic pontine glioma line)
Assay: growth inhibition (% activity, log2 RLU normalised to DMSO / staurosporine); higher = more growth inhibition
Settings: 33 µM
Field: growth inhibition. Provide a value for each of the molecules that follow.
Give bare numbers, in %.

Molecule: Clc1ccc(CCC(Cn2ccnc2)Sc2c(Cl)cccc2Cl)cc1 (stereo not drawn)
growth inhibition [%]: 11.4

Molecule: C[C@@H]1C/C=C/C=C/C=C/C=C/[C@H](O[C@@H]2O[C@H](C)[C@@H](O)[C@H](N)[C@@H]2O)C[C@@H]2O[C@](O)(C[C@@H](O)C[C@H]3O[C@@H]3/C=C/C(=O)O1)C[C@H](O)[C@H]2C(=O)O
growth inhibition [%]: 0.668

Molecule: C[C@H]1C[C@H]2[C@@H]3CCC4=CC(=O)C=C[C@]4(C)[C@H]3C(=O)C[C@]2(C)[C@@]1(O)C(=O)CO
growth inhibition [%]: 0.862

I need growth inhibition for every entry listed below, if you could help.
1. COc1cc2nc(N(C)CCCNC(=O)C3CCCO3)nc(N)c2cc1OC (stereo not drawn)
2. Cc1c(C(=O)NN2CCCCC2)nn(-c2ccc(Cl)cc2Cl)c1-c1ccc(Cl)cc1
3. CCCCOc1cc(C(=O)NCCN(CC)CC)c2ccccc2n1
4. C[C@]12C=CC(=O)N[C@@H]1CC[C@@H]1[C@@H]2CC[C@]2(C)[C@@H](C(=O)Nc3cc(C(F)(F)F)ccc3C(F)(F)F)CC[C@@H]12
5. CC(C)C[C@H](NC(=O)[C@H](Cc1ccccc1)NC(=O)c1cnccn1)B(O)O
6. N[C@H](C(=O)O)[C@H](O)c1ccc(O)c(O)c1

[1.78, 3.18, 1.33, -0.463, 69.9, -4.54]

I need growth inhibition for every entry listed below, if you could help.
1. C=C1/C(=C\C=C2/CCC[C@]3(C)[C@@H]([C@H](C)CCCC(C)C)CC[C@@H]23)C[C@@H](O)C[C@@H]1O
2. CC(C(=O)O)c1ccc(C(=O)c2cccs2)cc1 (stereo not drawn)
3. O=C1c2cccc3c2[C@H](CCC3)CN1[C@@H]1CN2CCC1CC2
4. O=C(N/N=C/c1ccc([N+](=O)[O-])o1)c1ccc(O)cc1
5. Nc1nc2n[nH]nc2c(=O)[nH]1
6. CC(C)NCC(O)c1cc(O)cc(O)c1 (stereo not drawn)
7. NS(=O)(=O)c1cc2c(cc1Cl)NC(C(Cl)Cl)NS2(=O)=O (stereo not drawn)

[0.72, -0.105, 0.79, 2.98, 1.25, -0.215, 0.0927]

I need growth inhibition for every entry listed below, if you could help.
1. CCOC(=O)OC(C)OC1=C(C(=O)Nc2ccccn2)N(C)S(=O)(=O)c2ccccc21 (stereo not drawn)
2. O=C(O)CSCC(=O)NC1CCSC1=O (stereo not drawn)
3. CCOC(=O)C1=C(C)NC(C)=C(C(=O)OCC)C1c1ccccc1/C=C/C(=O)OC(C)(C)C
4. C[C@@H]1C[C@H]2[C@@H]3CCC4=CC(=O)C=C[C@]4(C)[C@@]3(Cl)[C@@H](O)C[C@]2(C)[C@@]1(OC(=O)c1ccco1)C(=O)CCl
5. COCCCC/C(=N\OCCN)c1ccc(C(F)(F)F)cc1
6. O=C(O)c1ccccc1
7. Nc1nc(Cl)nc2c1ncn2[C@@H]1O[C@H](CO)[C@@H](O)[C@@H]1F

-1.05
-6.51
7.34
-3.14
2.91
1.73
14.3

meta.source: the supplement of paper PMC8253809
